molecular target: Serotonin 2 (5-HT2) receptor (Rattus norvegicus, UniProt P30994+P08909+P14842)
reported-metric: Ki (nM)
Report the value in nM with no unit label.

Previously resolved entries follow.
molecule: CNCCc1c[nH]c2ccc(O)cc12
subject-of-test: Serotonin 2 (5-HT2) receptor (Rattus norvegicus, UniProt P30994+P08909+P14842)
Ki / nM: 180
--
molecule: COc1ccc(CC(C)N)cc1OC (configuration not stated)
subject-of-test: Serotonin 2 (5-HT2) receptor (Rattus norvegicus, UniProt P30994+P08909+P14842)
Ki / nM: 43300
--
molecule: COc1cc(C[C@H](C)N)c(OC)cc1I
subject-of-test: Serotonin 2 (5-HT2) receptor (Rattus norvegicus, UniProt P30994+P08909+P14842)
Ki / nM: 35

Lab note: need Ki for NCCc1c[nH]c2cc(O)ccc12 on Serotonin 2 (5-HT2) receptor (Rattus norvegicus, UniProt P30994+P08909+P14842), anyone have it?
11500

Lab note: need Ki for CN(C)CCc1c[nH]c2ccc(O)cc12 on Serotonin 2 (5-HT2) receptor (Rattus norvegicus, UniProt P30994+P08909+P14842), anyone have it?
380

Lab note: need Ki for CN[C@H](C)Cc1cc(OC)c(C)cc1OC on Serotonin 2 (5-HT2) receptor (Rattus norvegicus, UniProt P30994+P08909+P14842), anyone have it?
260

Lab note: need Ki for COc1cc([N+](=O)[O-])c(OC)cc1CC(C)N (configuration not stated) on Serotonin 2 (5-HT2) receptor (Rattus norvegicus, UniProt P30994+P08909+P14842), anyone have it?
300
